testedOn: BCAT2 (Homo sapiens, UniProt O15382)
Sequence (O15382 28-392): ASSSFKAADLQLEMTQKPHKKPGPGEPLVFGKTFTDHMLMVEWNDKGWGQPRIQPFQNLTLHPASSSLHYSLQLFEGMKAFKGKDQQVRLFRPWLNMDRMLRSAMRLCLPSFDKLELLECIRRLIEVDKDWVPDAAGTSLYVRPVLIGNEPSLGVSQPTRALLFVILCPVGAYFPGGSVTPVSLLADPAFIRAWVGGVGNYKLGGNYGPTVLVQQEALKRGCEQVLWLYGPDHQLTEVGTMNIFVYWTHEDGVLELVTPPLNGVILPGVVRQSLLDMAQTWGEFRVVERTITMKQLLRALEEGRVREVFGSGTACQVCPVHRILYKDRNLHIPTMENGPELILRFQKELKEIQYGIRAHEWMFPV
assayProtocol: BCAT2 in vitro cell inhibition using engineered A549 cells (KMV cell assay, 13C6-KMV by LC-MS/MS)
Format: cell-based
Design: The result was an engineered A549 cell line that expressed endogenous BCAT2; endogenous in cells; host or cells: A549 cells with MUT and BCAT1 knocked out by CRISPR/CAS9
runConditions: average where tested multiple times
Measured IC50 values are reported for all entries that follow.
valueType: IC50

>  <smilesStr>
O=C(N[C@H]1CCC[C@@H](n2c(-c3ccccc3F)nc3cnc(-c4cnn[nH]4)cc32)C1)c1ncc(Cl)s1

>  <valueType>
IC50

>  <observed>
≤ 100 nM

$$$$
>  <smilesStr>
O=C(N[C@H]1CCC[C@@H](n2c(-c3ccccc3F)nc3cnc(-c4nc[nH]n4)cc32)C1)c1ncc(C(F)F)s1

>  <valueType>
IC50

>  <observed>
≤ 100 nM

$$$$
>  <smilesStr>
CC(C)Cc1nc2cnc(-c3ncns3)cc2n1[C@@H]1CCC[C@H](NC(=O)c2ncc(Cl)s2)C1

>  <valueType>
IC50

>  <observed>
> 1000 nM

$$$$
>  <smilesStr>
O=C(N[C@H]1CCC[C@@H](n2c(-c3ccccc3F)nc3cnc(O[C@H]4CCOC4)cc32)C1)c1ncc(Cl)s1

>  <valueType>
IC50

>  <observed>
100 to 500 nM

$$$$
